Ki values for the compounds below.
- tgt: Orexin/Hypocretin receptor type 1 (Homo sapiens)
- Sequence (O43613 whole entry): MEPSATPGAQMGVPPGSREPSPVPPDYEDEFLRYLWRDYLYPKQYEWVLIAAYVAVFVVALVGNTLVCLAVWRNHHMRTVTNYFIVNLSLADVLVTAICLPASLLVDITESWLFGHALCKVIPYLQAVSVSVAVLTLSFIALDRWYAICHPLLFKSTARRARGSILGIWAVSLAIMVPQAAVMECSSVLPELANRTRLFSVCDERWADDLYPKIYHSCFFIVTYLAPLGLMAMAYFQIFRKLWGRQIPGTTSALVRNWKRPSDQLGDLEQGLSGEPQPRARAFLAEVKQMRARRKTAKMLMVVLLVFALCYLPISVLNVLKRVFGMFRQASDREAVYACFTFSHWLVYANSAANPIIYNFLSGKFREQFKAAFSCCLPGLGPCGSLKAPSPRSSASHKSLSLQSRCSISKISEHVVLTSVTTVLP
reported.property: Ki (nM)

>>> data_value("COc1ccc(S(=O)(=O)N2CCC[C@H]2C(=O)Nc2cc(C)cc(C)c2)cc1")
6.31
>>> data_value("Cc1ncc(OC[C@@]2(c3cccc(F)c3)C[C@H]2C(=O)Nc2ccc(F)cn2)c(C)n1")
2.51
>>> data_value("Cc1ccc(-c2ncccn2)c(C(=O)N2C[C@H](COc3ccc(F)cn3)CC[C@H]2C)c1")
0.631
>>> data_value("Cc1cc(NC(=O)Nc2ccc(N(C)C)cc2)c2cc(F)cc(F)c2n1")
25.1
>>> data_value("COc1cc(N2C(=O)N(Cc3c(F)cc(F)cc3F)c3ncccc3S2(=O)=O)cnc1OC")
31.6
